system: isolated rabbit urinary bladder; experiment: Relaxation effect on potassium-induced contraction of isolated rabbit urinary bladder; assay type: cell-based; conditions: Oryctolagus cuniculus; 50% relaxation concentration; high-K+ (30 mM) pre-contracted rabbit bladder strips; relaxation as percentage of the maximum produced by 0.1 mM papaverine; read-out: EC50 value range
pEC50: −log10 of the molar value.
measurement_label: pEC50

Past entries and their recorded results:
COc1ccc(-c2nc(CC(=O)O)c(-c3ccc(Cl)s3)s2)cc1; 6.00 to 6.30
CCCc1nc(-c2ccccn2)[nH]c1-c1cccs1; 5.52 to 6.00

// switching to the query molecule
[ask] Form: Entry = COc1ccc(-c2nc(-c3ccsc3)c(CC(=O)O)s2)cc1 | System = isolated rabbit urinary bladder | pEC50 = ____
[reply] ≥ 6.30

====

test system: rhythmic bladder contractions induced by substance P; assay: Inhibitory effect on the rhythmic bladder contractions induced by substance P in anesthetized rats; format: in vivo, rat; conditions: time during which frequency of rhythmic contraction was completely inhibited, 0.25 mg/kg of the compound, substance P infusion
measurement_label: 100% inhibition time range

Past entries and their recorded results:
O=C(O)Cc1sc(-c2cc3ccccc3s2)nc1-c1ccc(Cl)cc1 [Preparation Example 574]; B (A≧20>B≧10>C (minute))
CCc1nc(-c2ccc(C)nc2)[nH]c1-c1ccccc1 [Preparation example 28]; B (A≧20>B≧10>C (minute))
CSCc1ccc(-c2nc(CC(=O)O)c(-c3ccc(Cl)s3)o2)cc1 [Preparation Example 448]; C (A≧20>B≧10>C (minute))
O=C(O)Cc1nc(-c2ccc(F)cc2)oc1-c1csc(Cl)c1 [Preparation Example 286]; C (A≧20>B≧10>C (minute))
Cc1csc(-c2nc(CC(=O)O)c(-c3ccc(Cl)s3)o2)c1 [Preparation Example 478]; B (A≧20>B≧10>C (minute))
CN(c1ccc(-c2nc(CC(=O)O)c(-c3ccc(Cl)s3)o2)cn1)C1CC1 [Preparation Example 531]; C (A≧20>B≧10>C (minute))
O=C(O)Cc1nc(-c2ccc3occc3c2)oc1-c1cc(Cl)cs1 [Preparation Example 288]; C (A≧20>B≧10>C (minute))
CCN(CC)C(=O)Cc1nc(-c2ccc(F)cc2)oc1-c1ccsc1 [Preparation Example 617]; B (A≧20>B≧10>C (minute))
O=C(O)Cc1sc(-c2ccc(F)cc2)nc1-c1ccsc1 [Preparation Example 594]; C (A≧20>B≧10>C (minute))
Cc1cc(-c2nc(-c3ccc(Cl)s3)c(CC(=O)O)s2)sc1C [Preparation Example 587]; A (A≧20>B≧10>C (minute))

// switching to the query compound
[ask] Given the compound COCc1nc(-c2cccc(F)c2)[nH]c1-c1ccccc1 [Preparation example 123] , what is its reported 100% inhibition time range?
[reply] C (A≧20>B≧10>C (minute))

====

Test system: rhythmic bladder contractions induced by substance P
Experiment: Inhibitory effect on the rhythmic bladder contractions induced by substance P in anesthetized rats
Type: in vivo, rat
Settings: time during which frequency of rhythmic contraction was completely inhibited, 0.25 mg/kg of the compound, substance P infusion
Procedure: Inhibitory effect on the rhythmic bladder contractions induced by substance P in anesthetized rats For the experiments, Sprague-Dawley female rats (9 to 12 weeks old) weighing between 200 to 300 g were used. After urethane anesthetization (subcutaneously administered with a dose of 1.2 g/kg), cannulae were placed in both right and left femoral veins. One intravenous catheter was used for administration of compounds, and the other was for the substance P (0.33 μg/kg/min) infusion. […]
measurement_label: 100% inhibition time range

CCc1nc(-c2ccc(F)cc2)[nH]c1-c1cccnc1C [Preparation example 48]; C (A≧20>B≧10>C (minute))
CCCc1nc(-c2cccc(F)c2)[nH]c1-c1ccccc1 [Preparation example 30]; B (A≧20>B≧10>C (minute))
COc1ccc(-c2nc(CC(=O)O)c(-c3cccs3)o2)cc1F [Preparation Example 431]; B (A≧20>B≧10>C (minute))
Cc1cc(-c2nc(CC(=O)O)c(-c3ccc(Cl)cc3)o2)sc1C [Preparation Example 474]; C (A≧20>B≧10>C (minute))

====

test system: rhythmic bladder contractions induced by substance P; experiment: Inhibitory effect on the rhythmic bladder contractions induced by substance P in anesthetized rats; format: in vivo, rat; details: time during which frequency of rhythmic contraction was completely inhibited, 0.25 mg/kg of the compound, substance P infusion
measurement_label: 100% inhibition time range

Past entries and their recorded results:
FCCc1nc(-c2ccc(F)cc2)[nH]c1-c1ccccc1 [Preparation Example 182]; B (A≧20>B≧10>C (minute))
Clc1cc(-c2ncc(-c3cccnc3)[nH]2)cs1 [Preparation example 24]; C (A≧20>B≧10>C (minute))
CCc1c(-c2cccnc2)nc(-c2ccc(F)cc2)n1C.Cl.Cl [Preparation example 102]; C (A≧20>B≧10>C (minute))
O=C(O)Cc1nc(-c2ccc(F)cc2)oc1-c1cccc(F)c1F [Preparation Example 252]; C (A≧20>B≧10>C (minute))
CSc1ncc(-c2nc(CC(=O)O)c(-c3ccc(Cl)s3)o2)cn1 [Preparation Example 445]; A (A≧20>B≧10>C (minute))
CCc1nc(-c2ccc(Cl)s2)[nH]c1-c1cccnc1 [Preparation example 14]; A (A≧20>B≧10>C (minute))
CCCc1nc(-c2ccc(F)cc2)[nH]c1-c1cccc(F)c1 [Preparation example 99]; B (A≧20>B≧10>C (minute))
CN(C)c1ccc(-c2nc(-c3ccc(Cl)s3)c(CC(=O)O)s2)cn1 [Preparation Example 571]; A (A≧20>B≧10>C (minute))

[ask] Given the compound CN(C)c1ncc(-c2nc(CC(=O)O)c(-c3ccc(Cl)s3)s2)cn1 [Preparation Example 611] , what is its reported 100% inhibition time range?
[reply] B (A≧20>B≧10>C (minute))

[ask] For O=C(O)Cc1nc(-c2ccc(F)cc2)oc1-c1ccc(F)cc1 [Preparation Example 235] then?
[reply] B (A≧20>B≧10>C (minute))

[ask] For CCc1nc(-c2ccc(F)cc2)[nH]c1-c1cncnc1 [Preparation example 85] then?
[reply] C (A≧20>B≧10>C (minute))

====

System: rhythmic bladder contractions induced by substance P
Experiment: Inhibitory effect on the rhythmic bladder contractions induced by substance P in anesthetized rats
Assay type: in vivo, rat
Details: time during which frequency of rhythmic contraction was completely inhibited, 0.25 mg/kg of the compound, substance P infusion
Procedure: Inhibitory effect on the rhythmic bladder contractions induced by substance P in anesthetized rats For the experiments, Sprague-Dawley female rats (9 to 12 weeks old) weighing between 200 to 300 g were used. After urethane anesthetization (subcutaneously administered with a dose of 1.2 g/kg), cannulae were placed in both right and left femoral veins. One intravenous catheter was used for administration of compounds, and the other was for the substance P (0.33 μg/kg/min) infusion. […]
measurement_label: 100% inhibition time range

CS(=O)(=O)Nc1ccccc1-c1oc(-c2ccc(F)cc2)nc1CC(=O)O [Preparation Example 238]; C (A≧20>B≧10>C (minute))
COc1cccc(-c2nc(CC(=O)O)c(-c3cccs3)o2)c1 [Preparation Example 263]; C (A≧20>B≧10>C (minute))
O=C(O)Cc1nc(-c2ccc(F)cc2)oc1-c1cccc(F)c1 [Preparation Example 236]; C (A≧20>B≧10>C (minute))

====

Counter-ions that a name gives are not always drawn.
Measured melting point of individual entries

Past entries and their recorded results:
CCc1nc(-c2ccc(F)cc2)[nH]c1-c1cscn1 (as salt: HCl) [Preparation example 52]; 267 to 269 °C
CCCc1nc(-c2ccc(Cl)cc2)[nH]c1-c1ccccc1 [Preparation example 60]; 147 to 149 °C
C[S+]([O-])Cc1nc(-c2cccc(F)c2)[nH]c1-c1ccccc1 (centres unmarked) (as salt: HCl) [Preparation example 136]; 198 to 200 °C
OCCc1nc(-c2ccc(F)cc2)oc1-c1ccsc1 [Preparation Example 619]; 110 to 111 °C
CCCc1nc(-c2cc(Cl)cs2)[nH]c1-c1ccccc1 (as salt: HCl) [Preparation example 40]; 188 to 190 °C
CSCc1nc(-c2ccc(C#N)cc2)[nH]c1-c1cccnc1 [Preparation example 134]; 209 to 211 °C
CCOC(=O)Cc1nc(-c2ccc3ncccc3c2)oc1-c1ccsc1 [Preparation Example 411]; 130 to 133 °C
OCCc1[nH]c(-c2ccc(Cl)s2)nc1-c1cccnc1 (as salt: hydrochloride) [Preparation example 146]; 179 to 180 °C
COCc1nc(-c2ccc(F)cc2)[nH]c1-c1ccccc1 (as salt: HCl) [Preparation example 121]; 204 to 207 °C
CCCc1nc(-c2ccc(F)cc2)[nH]c1-c1cccc(OC)c1 (as salt: HCl) [Preparation example 96]; 120 to 122 °C

[ask] Given the compound CCc1nc(-c2ccc(F)cc2)[nH]c1-c1cnccn1 (as salt: HCl) [Preparation example 49] , what is its reported melting point?
[reply] 241 to 243 °C
